- tested.system: hnRNPG RRMmut (Homo sapiens, UniProt P38159 1-391, K9A;F11A;R49A;F51A;F53A)
- Sequence (P38159 whole entry K9A/F11A/R49A/F51A/F53A): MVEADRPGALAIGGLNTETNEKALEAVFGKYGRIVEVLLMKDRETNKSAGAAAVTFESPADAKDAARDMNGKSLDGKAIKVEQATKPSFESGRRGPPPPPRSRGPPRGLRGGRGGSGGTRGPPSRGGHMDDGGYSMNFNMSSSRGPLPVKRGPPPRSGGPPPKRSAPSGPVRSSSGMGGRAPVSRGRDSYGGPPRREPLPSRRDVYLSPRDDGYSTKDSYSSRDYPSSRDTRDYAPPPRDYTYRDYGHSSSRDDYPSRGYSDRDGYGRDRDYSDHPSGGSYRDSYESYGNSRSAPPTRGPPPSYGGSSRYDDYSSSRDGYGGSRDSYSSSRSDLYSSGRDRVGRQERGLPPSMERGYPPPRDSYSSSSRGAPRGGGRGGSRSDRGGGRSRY
- measurement.notes: limited proteolysis protection

binder | binding result
AAUGUGAAGGACUUUCGUAACGGAAGUAAUUCAA (structured_RNA, m6A at position 11) [MALAT1 hairpin 2515-m6A] | no binding
SMN2exon7 RNA (ssRNA) RNA: GGUUUUAGACAAAAUCAAAAAGAAGGAAGGUGCUCACAUUCCUUAAAUUAAGGA | no binding
GGGUACGACGGAUAUCGUGGGGGGGGAAAUUGCUUUCGGUUCCGACUCUG (structured_RNA) [WEc RNA] | no binding
AAUGUGAAGGACUUUCGUAACGGAAGUAAUUCAA (structured_RNA) [MALAT1 hairpin 2515-A] | no binding
